These data points were gathered from paper PMC8698657.

# Test Protocol: Trans-enterocyte transport of CA in Caco-2 cell monolayer
# Type: in vitro ADME, human
# Condition Parameters: human, Caco-2, CA 100 μM, 3.0 h, CA alone; read-out: Papp AP to BL
# Experimental: Caco-2 were cultured in EMEM complete medium containing 10% FBS, 1% non-essential amino acids, and 1% penicillin-streptomycin double antibody, and the culture conditions were 37 °C, 5% CO2, in a constant temperature incubator [16]. We first established non-toxic dose ranges of CA in Caco-2 cells using MTT assay. […] A quantity of 200 μL of medium was added to each well to obtain a series of CA solutions (concentrations of 25, 50, 75, and 100 μmoL). […]

[
  {
    "Substance Smiles": "CC(C)c1cc2c(c(O)c1O)[C@@]1(C(=O)O)CCCC(C)(C)[C@@H]1CC2",
    "Measurement Units": "×10⁻⁶ cm/s",
    "Papp A→B at 3 h, 100 μM": 0.8
  }
]

###

# Test Protocol: Trans-enterocyte transport of CA in Caco-2 cell monolayer
# Assay type: in vitro ADME, human
# Condition Parameters: human, Caco-2, CA 100 μM, 0.5 h; read-out: Papp AP-BL
Parameter Measured: Papp A→B at 0.5 h, 100 μM (nm/s)

[
  {
    "Molecule": "CC(C)c1cc2c(c(O)c1O)[C@@]1(C(=O)O)CCCC(C)(C)[C@@H]1CC2 [CA, Carnosic acid]",
    "Observed": 11
  }
]

###

# Test Protocol: Trans-enterocyte transport of CA in Caco-2 cell monolayer
# Type: in vitro ADME, human
# Condition Parameters: human, Caco-2, CA 100 μM, 1.5 h
# Method: Caco-2 were cultured in EMEM complete medium containing 10% FBS, 1% non-essential amino acids, and 1% penicillin-streptomycin double antibody, and the culture conditions were 37 °C, 5% CO2, in a constant temperature incubator [16]. We first established non-toxic dose ranges of CA in Caco-2 cells using MTT assay. […] A quantity of 200 μL of medium was added to each well to obtain a series of CA solutions (concentrations of 25, 50, 75, and 100 μmoL). […]

[
  {
    "Substance Smiles": "CC(C)c1cc2c(c(O)c1O)[C@@]1(C(=O)O)CCCC(C)(C)[C@@H]1CC2",
    "Papp B→A at 1.5 h, 100 μM / ×10⁻⁶ cm/s": 2.53
  }
]

###

# Test Protocol: Trans-enterocyte transport of CA in Caco-2 cell monolayer
# Assay type: in vitro ADME, human
# Condition Parameters: human, Caco-2, CA 50 μM, 2.0 h
Parameter Measured: Papp B→A at 2 h, 50 μM (×10⁻⁶ cm/s)

[
  {
    "Substance Smiles": "CC(C)c1cc2c(c(O)c1O)[C@@]1(C(=O)O)CCCC(C)(C)[C@@H]1CC2",
    "Measurement Units": "×10⁻⁶ cm/s",
    "Observed": 0.49
  }
]

###

# Test Protocol: Trans-enterocyte transport of CA in Caco-2 cell monolayer
# Assay type: in vitro ADME, human
# Condition Parameters: human, Caco-2, CA 75 μM, 2.0 h
Parameter Measured: efflux ratio at 2 h, 75 μM

[
  {
    "Compound": "CC(C)c1cc2c(c(O)c1O)[C@@]1(C(=O)O)CCCC(C)(C)[C@@H]1CC2 [CA, Carnosic acid]",
    "Observed": 0.33
  }
]
